System: Trypanosoma brucei
METHOD: Antiprotozoal activity against Trypanosoma brucei clone 427-221a
Assay type: functional, organism-based
ENDPOINT: IC50 (nM)
Provide only the numeric value, understood in nM.

Can you look up the measured IC50 of COc1ccc2nc3cc(Cl)ccc3c(NCCCN(C)CCCNc3c4ccc(Cl)cc4nc4ccc(OC)cc34)c2c1 for me?
1

---

System: MRC5
METHOD: Anticancer activity against human MRC5 cells assessed as cell growth inhibition measured after 24 hrs by MTT assay
Assay type: functional, cell-based
PROTOCOL CONDITIONS: MRC5, 24 h
ENDPOINT: IC50 (µM)
# output: bare number, implied unit µM

Form field: IC50 recorded for Clc1ccc(CNCCCN2CCN(CCCNCc3ccc(Cl)cc3)CC2)cc1 with MRC5 (enter value)
4.5

---

Test system: Leishmania infantum
METHOD: Antiprotozoal activity against Leishmania infantum promastigotes measured after 5 days
Assay type: functional, organism-based
PROTOCOL CONDITIONS: 120 h
ENDPOINT: IC50 (nM)
The response must be a number in nM with no trailing unit.

Please look up its IC50: O=C1c2cccc3cccc(c23)C(=O)N1CCCNCCCCNCCCN1C(=O)c2cccc3cccc(c23)C1=O
1000

---

SUBJECT OF TEST: UniProtKB P28593
Sequence (P28593 whole entry): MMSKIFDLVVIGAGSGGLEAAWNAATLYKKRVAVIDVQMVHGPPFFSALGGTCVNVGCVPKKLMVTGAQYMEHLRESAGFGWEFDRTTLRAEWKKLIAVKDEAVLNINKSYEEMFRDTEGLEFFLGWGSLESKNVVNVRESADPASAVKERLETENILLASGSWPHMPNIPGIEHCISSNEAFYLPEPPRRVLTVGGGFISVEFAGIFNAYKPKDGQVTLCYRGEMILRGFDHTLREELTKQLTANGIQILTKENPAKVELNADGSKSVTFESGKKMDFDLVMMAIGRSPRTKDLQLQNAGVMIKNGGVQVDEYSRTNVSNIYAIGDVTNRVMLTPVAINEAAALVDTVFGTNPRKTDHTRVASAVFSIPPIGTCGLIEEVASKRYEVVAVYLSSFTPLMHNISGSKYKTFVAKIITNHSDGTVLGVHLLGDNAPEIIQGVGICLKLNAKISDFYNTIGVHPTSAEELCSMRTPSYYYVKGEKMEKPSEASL
METHOD: Inhibition of Trypanosoma cruzi TryR expressed in escherichia coli in presence of NADPH
pIC50: −log10 of the molar value.
ENDPOINT: pIC50

Query (compound): O=C1NC(=O)C(c2c[nH]c3ccccc23)=C1NCCCNCCCNC1=C(c2c[nH]c3ccccc23)C(=O)NC1=O ; field requested: pIC50
< 4.24

---

System: Leishmania donovani
METHOD: Antiprotozoal activity against Leishmania donovani MHOM/ET/67/L82 strain infected in mouse macrophage cell measured after 5 days
Type: functional, organism-based
PROTOCOL CONDITIONS: MHOM/ET/67/L82, Macrophage, 120 h
ENDPOINT: IC50

Could you share which IC50 value was measured for CC1=C(CCCCCC(=O)NCCCCNCCCNC(=O)CCCCCC2=C(C)C(=O)c3ccccc3C2=O)C(=O)c2ccccc2C1=O ?
< 5 µM

---

Test system: Leishmania donovani
METHOD: Antiprotozoal activity against Leishmania donovani MHOM/PE/84/LC26 amastigotes infected in mouse J774.2 cells measured after 72 hrs
Assay type: functional, organism-based
PROTOCOL CONDITIONS: J774.2, 72 h
ENDPOINT: IC50 (µM)
Give your result in µM as a bare value.

Identify the measured IC50 of CN1CCCNc2c(c(=O)c2=O)NCCCN(C)CCCNc2c(c(=O)c2=O)NCCC1 for Leishmania donovani.
20

---

METHOD: Anticancer activity against rat Myoblast cells assessed as cell growth inhibition
Format: functional, cell-based
ENDPOINT: IC50 (µM)
# output: bare number, implied unit µM

Record request: IC50 value, item CN(C)CCCNc1cc(Cl)ccc1Sc1ccc(C(F)(F)F)cc1
9.8

---

Tested on: MRC5
METHOD: Anticancer activity against human MRC5 cells assessed as cell growth inhibition
Assay type: functional, cell-based
pIC50: −log10 of the molar value.
ENDPOINT: pIC50

Report pIC50 for COc1ccc2nc3cc(Cl)ccc3c(NCCCN(CCCNc3c4ccc(Cl)cc4nc4ccc(OC)cc34)C(=O)C(NC(=O)OC(C)(C)C)C(C)C)c2c1 (stereo unspecified) please.
< 5.50
